Source: PubChem BioAssay (NCI)

- Tested on: HCT-15 colon
- Experiment Description: NCI-60 one-dose screen, 48 h
- Experimental Parameters: 10 µM unless noted
- Protocol: Growth inhibition of the HCT-15 human tumor cell line is measured as a screen for anti-cancer activity. Cells are grown in 96 well plates and exposed to the test compound for 48 hours. Compounds are tested at a single concentration, which is 10^-5 M for most compounds. The reported endpoint is percent growth (GI% or GIPRCNT), where numbers from 0 - 100% represent growth inhibition, and numbers from -100% - 0 represent cell death. For example, a value of 40 represents 60% growth inhibition. […]
This is part of a sample that, as a whole, favours compounds with a hit. Of some 83,000 tested, about 20% had one in any assay. The source made the active and inactive calls. How the source made its calls: active means growth percent below 10; inactive means the rest.
Give your call using only these classes: active, inactive

Ask | Could you please tell me the result logged for O=C1Nc2ccccc2/C1=C/c1ccc(COCC2CO2)n1-c1ccc(O)cc1 (stereo not drawn) in this assay?
Reply | inactive

Ask | Could you please tell me the result logged for "Cc1cccc(/C=C/C(=O)Nc2ncc(Cc3cccc(C)c3)s2)c1" in this assay?
Reply | inactive

Ask | Could you please tell me the result logged for "COc1cc(OC)cc(C(=O)Nc2sc3c(c2C(N)=O)CCC(=O)C3)c1" in this assay?
Reply | inactive

Ask | Could you please tell me the result logged for "NS(=O)(=O)c1ccc(-n2cc(CN3CCCCC3)nn2)cc1" in this assay?
Reply | inactive

Ask | Could you please tell me the result logged for "COc1ccc(OC)c(-c2nc(SCC(=O)c3ccc(Br)cc3)nc(Nc3ccc(S(N)(=O)=O)cc3)c2C#N)c1" in this assay?
Reply | inactive

Ask | Could you please tell me the result logged for "COc1ccc(-c2nc3cccc(O)c3c(=O)n2Cc2ccccc2)cc1COc1ccc(NC(C)=O)cc1" in this assay?
Reply | inactive

Ask | Could you please tell me the result logged for "CN(Cc1ccccc1)S(=O)(=O)/N=C1\NC(=O)NC1=C(Cl)Cl" in this assay?
Reply | active

Ask | Could you please tell me the result logged for "CC(C)(C)c1ccc(C(=O)Nc2sc3c(c2C(N)=O)CC/C(=N\O)C3)cc1" in this assay?
Reply | inactive

Ask | Could you please tell me the result logged for "CC1(C)CC[C@]23CC[C@]4(C)[C@H](CC[C@@H]5[C@@]6(C)CCCN(CO)C(C)(C)[C@@H]6CC[C@]54C)[C@H]2[C@H]1OC3" in this assay?
Reply | active

Ask | Could you please tell me the result logged for "O=C(CCn1cc[n+](CC(=O)c2ccc(-c3ccccc3)cc2)c1)Nc1cccc2cccnc12" in this assay?
Reply | inactive

Ask | Could you please tell me the result logged for "C=CC(=O)N1CC=C(c2cc3c(N[C@H](C)c4ccccc4)ncnc3[nH]2)CC1" in this assay?
Reply | inactive

Ask | Could you please tell me the result logged for "CC/C(=C/c1c(O)cccc1OC)c1ccc2c(OC)cccc2[o+]1" in this assay?
Reply | inactive

Ask | Could you please tell me the result logged for "O=C1C(c2ccccc2)=C(N2CCc3ccccc32)OC1(Cl)Cl" in this assay?
Reply | inactive

Ask | Could you please tell me the result logged for "CNC(=O)c1cc(Oc2ccc3nc(NC(=O)c4ccc(N5CCOCC5)c(C(F)(F)F)c4)sc3c2)ccn1" in this assay?
Reply | inactive

Ask | Could you please tell me the result logged for "NC(N)=Nc1ccc(Oc2cccc(NC(N)=Nc3ccc(Cl)c(C(F)(F)F)c3)c2)cn1" in this assay?
Reply | inactive

Ask | Could you please tell me the result logged for "CC/C(=C/c1cc(OC)ccc1O)c1ccc2cc(OC)ccc2[o+]1" in this assay?
Reply | inactive

Ask | Could you please tell me the result logged for "CCn1c(SCC(=O)Nc2cccc(C(=O)/C=C/c3ccc(Br)cc3)c2)nc2ccccc2c1=O" in this assay?
Reply | inactive

Ask | Could you please tell me the result logged for "COc1ccc(NC2=C(Cl)C(=O)c3nc(C)ccc3C2=O)cc1OC" in this assay?
Reply | inactive

Ask | Could you please tell me the result logged for "COc1cc(-c2nc(SCCC(C)C)nc(NNC(=O)c3ccncc3)c2C#N)cc(OC)c1OC" in this assay?
Reply | inactive

Ask | Could you please tell me the result logged for "NS(=O)(=O)c1ccc(Nc2nc(SCc3ccccc3)nc3ccccc23)cc1" in this assay?
Reply | inactive

Ask | Could you please tell me the result logged for "O=C(Nc1ccc2c(ccn2Cc2ccccn2)c1)c1ccnnc1" in this assay?
Reply | inactive

Ask | Could you please tell me the result logged for "COc1cc2oc(-c3cccc(C(=O)N[C@@H](CC(C)C)C(=O)OC(C)(C)C)c3)cc(=O)c2c(OC)c1OC" in this assay?
Reply | inactive

Ask | Could you please tell me the result logged for "NS(=O)(=O)c1ccc(Nc2nc(SCC(=O)c3ccc(Cl)cc3)nc3c2CCCC3)cc1" in this assay?
Reply | inactive

Ask | Could you please tell me the result logged for "Cc1ccc(-c2cc3nc(C(Cl)Cl)nc(-c4ccco4)n3n2)cc1" in this assay?
Reply | inactive

Ask | Could you please tell me the result logged for "CC(C)(C)c1ccc(C(=O)Nc2nc3ccc(O)cc3s2)cc1" in this assay?
Reply | active

Ask | Could you please tell me the result logged for "COc1cccc(N2CCN(c3ncnc4c3[nH]c3ccc(F)cc34)C[C@H]2C)c1" in this assay?
Reply | inactive

Ask | Could you please tell me the result logged for "Cc1ccc(-c2nnc(SCc3ccc(O)c4ncccc34)o2)cc1" in this assay?
Reply | inactive

Ask | Could you please tell me the result logged for CC(=O)C1=C(C)NC(NNC(N)=S)=NC1c1ccccc1 (stereo not drawn) in this assay?
Reply | inactive

Ask | Could you please tell me the result logged for "CS(=O)(=O)Nc1cc(-c2ccc3ncc(C#N)c(NCc4ccccc4F)c3c2)cnc1Cl" in this assay?
Reply | active

Ask | Could you please tell me the result logged for "Cn1ccnc1C(=O)/C=C/C=C/c1ccc(C(=O)Nc2ccc(F)cc2)cc1" in this assay?
Reply | active

Ask | Could you please tell me the result logged for O=C(NNc1nc2cc(F)c(F)cc2n2c(CN3CC4CNCC4C3)ccc12)c1cnccn1 (stereo not drawn) in this assay?
Reply | inactive

Ask | Could you please tell me the result logged for Cc1cc(C(NC(=O)CCCCCNc2cccc3c2C(=O)N(C2CCC(=O)NC2=O)C3=O)c2ccc3c(c2)OC(F)(F)O3)c(O)c2ncccc12 (stereo not drawn) in this assay?
Reply | inactive

Ask | Could you please tell me the result logged for "CC(C)c1ccc(NCc2cn(-c3ccc(C(=O)O)cc3)nc2-c2cc(C(F)(F)F)cc(C(F)(F)F)c2)cc1" in this assay?
Reply | inactive
